Tested on: HSV-1
Experiment: HSV Antiviral (ELISA) assay
Type: cell-based
Conditions: HSV-1 in Vero cells
observable: IC50 (ug/ml) HSV (µg/mL)

{"compound": "O=C(Nc1ccc(NC(=S)Nc2ccc3[nH]cnc3c2)cc1)c1ccco1", "observable": "IC50 (ug/ml) HSV", "unitTag": "µg/mL", "censoringSign": ">", "value": 10}
{"compound": "COc1cc(OC)c(NC(=S)Nc2ccc(NC(=O)c3ccc([N+](=O)[O-])o3)cc2)cc1Cl", "observable": "IC50 (ug/ml) HSV", "unitTag": "µg/mL", "censoringSign": "=", "value": 3}
{"compound": "CC(C)(C)c1cccc(NC(=S)Nc2ccc(NC(=O)c3csnn3)cc2)c1", "observable": "IC50 (ug/ml) HSV", "unitTag": "µg/mL", "censoringSign": ">", "value": 10}
{"compound": "COc1cc(OC)c(NC(=S)Nc2ccc(NC(=O)c3cccc4cccnc34)cc2)cc1Cl", "observable": "IC50 (ug/ml) HSV", "unitTag": "µg/mL", "censoringSign": ">", "value": 10}
{"compound": "O=C(Nc1ccc(NC(=S)Nc2cc(N3CCOCC3)cc(C(F)(F)F)c2)cc1)c1csnn1", "observable": "IC50 (ug/ml) HSV", "unitTag": "µg/mL", "censoringSign": ">", "value": 10}
{"compound": "Cc1ccc(NC(=S)Nc2ccc(NC(=O)c3csnn3)cc2)cc1Cl", "observable": "IC50 (ug/ml) HSV", "unitTag": "µg/mL", "censoringSign": ">", "value": 10}
{"compound": "CN(C)c1ccc(NC(=S)Nc2ccc(NC(=O)c3ccco3)cc2)cc1Cl", "observable": "IC50 (ug/ml) HSV", "unitTag": "µg/mL", "censoringSign": ">", "value": 10}
{"compound": "O=C(Nc1ccc(NC(=S)NCc2ccc(F)c(Cl)c2)cc1)c1csnn1", "observable": "IC50 (ug/ml) HSV", "unitTag": "µg/mL", "censoringSign": "=", "value": 7}
{"compound": "COc1cc(OC)c(NC(=S)Nc2ccc(NC(=O)c3ccoc3)cc2)cc1Cl", "observable": "IC50 (ug/ml) HSV", "unitTag": "µg/mL", "censoringSign": "=", "value": 9}
{"compound": "O=C(Nc1ccc(NC(=S)Nc2ccc(Cl)nc2)cc1)c1ccco1", "observable": "IC50 (ug/ml) HSV", "unitTag": "µg/mL", "censoringSign": "=", "value": 10}
{"compound": "Cc1cccc(NC(=S)Nc2ccc(NC(=O)c3ccco3)cc2)c1", "observable": "IC50 (ug/ml) HSV", "unitTag": "µg/mL", "censoringSign": "=", "value": 10}
{"compound": "COc1cccc(CCNC(=S)Nc2ccc(NC(=O)c3ccco3)cc2)c1", "observable": "IC50 (ug/ml) HSV", "unitTag": "µg/mL", "censoringSign": "=", "value": 8}
{"compound": "COc1cc(OC)c(NC(=S)Nc2ccc(NC(=O)c3ccc(Cl)o3)cc2)cc1Cl", "observable": "IC50 (ug/ml) HSV", "unitTag": "µg/mL", "censoringSign": "=", "value": 3}
{"compound": "Nc1cccc(NC(=S)Nc2ccc(NC(=O)c3ccco3)cc2)c1", "observable": "IC50 (ug/ml) HSV", "unitTag": "µg/mL", "censoringSign": ">", "value": 10}
{"compound": "O=C(Nc1ccc(NC(=S)NCCc2ccc(C(F)(F)F)cc2)cc1)c1csnn1", "observable": "IC50 (ug/ml) HSV", "unitTag": "µg/mL", "censoringSign": ">", "value": 10}
{"compound": "O=C(Nc1ccc(NC(=S)NCCOc2cccc(I)c2)cc1)c1csnn1", "observable": "IC50 (ug/ml) HSV", "unitTag": "µg/mL", "censoringSign": ">", "value": 10}
{"compound": "O=C(Nc1ccc(NC(=S)Nc2ccc(NC(=O)c3ccco3)cc2)cc1Cl)OCCN1CCCCC1", "observable": "IC50 (ug/ml) HSV", "unitTag": "µg/mL", "censoringSign": "=", "value": 9}
{"compound": "CC(O)c1cccc(NC(=S)Nc2ccc(NC(=O)c3csnn3)cc2)c1 (stereo not drawn)", "observable": "IC50 (ug/ml) HSV", "unitTag": "µg/mL", "censoringSign": ">", "value": 10}
